These entries and their values trace back to PubChem BioAssay (NCI).

test system: MALME-3M melanoma; test: NCI tumour cell line growth inhibition, 48 h
Observable: TGI (µM)
Respond with the bare value in µM.

The examples below pair each entry with its known result.
| Molecule | TGI [µM] |
| --- | --- |
| CCOC(=O)C(c1c[nH]c2ccccc12)(c1c[nH]c2ccccc12)c1c[nH]c2ccccc12 | 78.1 |
| COc1cc2c(cc1OC)-c1ccc3cc4c(cc3c1N(CCN1CCCC1)C2)OCO4 | 14.2 |
| C=C1C(=O)C([Si](C)(C)C)=C2C=C(C)C3(CC3)C12C (stereo not given) | 78.7 |
| Cc1ccc2[nH]c(C(=O)NN3C(=O)CSC34CCCCC4C)c(-c3ccccc3)c2c1 (stereo not given) | 35.6 |

Next item in the queue.
GET /values?readout=TGI&system=MALME-3M melanoma&item= Cc1occc1C(=S)Nc1ccc(Cl)c(C(=O)OCC(F)(F)F)c1
73.7
